Test system: M14
Assay: NCI tumour cell line growth inhibition, 48 h
The source made the active and inactive calls. No stated cut-off is given here; in the data, active = GI50 up to about 1.1 µM and inactive = higher.
PROPERTY LABEL: GI50

Report GI50 for N#CCCCCC12C3C(=O)N(c4ccccc4)C(=O)C3ON1O[C@@H]1C(=O)N(c3ccccc3)C(=O)[C@@H]12 (stereo not given in full) please.
> 100 µM (inactive)

Report GI50 for OCC(O)C(O)C(O)C(O)c1nc2cc(Cl)ccc2[nH]1 (stereo not given) please.
> 100 µM (inactive)

Report GI50 for `COC(=O)[C@@H]1CN(C(C)=O)C(=O)N1` please.
> 100 µM (inactive)

Report GI50 for `COC(=O)CCC(=O)N1C/C(=C\c2ccccc2)C(=O)/C(=C/c2ccccc2)C1` please.
1.98 µM (inactive)

Report GI50 for `N=C(N)c1ccc(/N=N\c2c(O)ccc3cc4c(/N=N\c5ccc(C(=N)N)cc5)c(O)ccc4cc23)cc1` please.
> 100 µM (inactive)

Report GI50 for O=C1C2CCCCC2C(=O)N1n1c(Cc2ccccc2)n[nH]c1=O (stereo not given) please.
> 100 µM (inactive)

Report GI50 for `COc1ccc(/C=N/n2c(-c3ccccc3)n[nH]c2=O)c(OC)c1` please.
98.2 µM (inactive)

Report GI50 for CC(=O)OC12c3ccccc3C(c3ccccc31)C1C(=O)N(c3ccccc3O)C(=O)C12 (stereo not given) please.
> 100 µM (inactive)

Report GI50 for COc1ccc2c(c1)C(=O)CC(N)C2 (stereo not given) please.
> 100 µM (inactive)

Report GI50 for `C/C(=N\Nc1nc2ccccc2s1)c1ccncn1` please.
0.51 µM (active)

Report GI50 for `c1ccc2c(c1)ccc1cc3cc(NCCCCNc4ccc5nc6c(ccc7ccccc76)cc5c4)ccc3nc12` please.
1.72 µM (inactive)

Report GI50 for `COC(=O)/C=C(\C)C(=O)N(C)c1ccccc1I` please.
> 100 µM (inactive)

Report GI50 for `C/C(=N\NC(=O)CC(=O)N(C(=O)c1ccc(Cl)cc1)c1ccc(C)cc1)c1ccccc1O` please.
81.7 µM (inactive)

Report GI50 for `O=C(NNC(=O)c1ccccc1O)c1cccc(Br)c1` please.
26.9 µM (inactive)

Report GI50 for `CN(CCCN1CCCC1)CCCN(C)C(=O)Cc1ccc(Cl)c(Cl)c1` please.
5.47 µM (inactive)

Report GI50 for `Cc1ccc(C(=O)NN=C(/N=N/c2cccc(C)c2)c2ccc(N(C)C)cc2)cc1` please.
> 100 µM (inactive)

Report GI50 for Nc1ncnc2c(C3OC(CO)C(O)C3O)c[nH]c12 (stereo not given) please.
0.0123 µM (active)

Report GI50 for `O=C(c1ccco1)N1CCN(C(=O)c2ccco2)C1=S` please.
6.22 µM (inactive)

Report GI50 for CN1C(=O)C23CCCCC2CC1(c1ccccc1)S3 (stereo not given) please.
> 100 µM (inactive)

Report GI50 for CN(C)C(C1=C(O)C(c2ccccc2)N(c2ccccc2)C1=O)N1CCOCC1 (stereo not given) please.
> 10 µM (inactive)
